Kindly supply the reported melting point values for the records listed here.

// below: answered compounds
>>> reported_measurement("CCOC(=O)C1(Br)C=CC2=C3NC(=O)C(S(=O)(=O)c4ccccc4)C=C3CCCN21 (stereo not shown)")
"172 to 173 °C"
>>> reported_measurement("COc1nc2c(cc1S(=O)(=O)c1ccccc1)CCn1cccc1-2")
"210 to 211 °C"
>>> reported_measurement("CC(C)OC(=O)C1(Br)C=CC2=C3NC(=O)C(S(=O)(=O)c4ccccc4)C=C3CCCN21 (stereo not shown)")
"167 to 168 °C"

For each of the compounds below, note its melting point.
1. CC(C)OC(=O)C1(Br)C=CC2=C3NC(=O)C(S(=O)(=O)c4ccccc4)C=C3CCN21 (stereo not shown)
2. O=c1[nH]c2c(cc1S(=O)(=O)c1ccccc1)CCn1cccc1-2
3. CCOC(=O)C1(Br)C=CC2=C3NC(=O)C(S(=O)(=O)c4ccccc4)C=C3CCN21 (stereo not shown)
4. Cn1c2c(cc(S(=O)(=O)c3ccccc3)c1=O)CCn1cccc1-2

# output
1. 174 to 175 °C
2. 317 to 318 °C
3. 196 to 197 °C
4. 268 to 269 °C

---

tested on: MDA-MB-231 cells; experiment: MTT cytotoxicity/photocytotoxicity test on human TNBC MDA-MB-231 cells; format: cell-based; conditions: Homo sapiens, light or radiation study, MDA-MB-231, 1 h pre-treatment, UVA 2.0 J/cm^2, recovered for total 24 h, read-out: UVA (2.0 J/cm^2) IC50 (µM) ± S.D
REPORTED ENDPOINT: IC50

// below: answered compounds
>>> reported_measurement("COc1nc2c(cc1S(=O)(=O)c1ccccc1)CCCn1c(C(=O)OC(C)C)ccc1-2 [Compound 8f]")
"23.7 µM"
>>> reported_measurement("CCOC(=O)c1ccc2n1CCCc1cc(S(=O)(=O)c3ccccc3)c(OC)nc1-2 [Compound 8e]")
"15.3 µM"
>>> reported_measurement("CC(C)OC(=O)c1ccc2n1CCc1cc(S(=O)(=O)c3ccccc3)c(=O)n(C)c1-2 [Compound 7f]")
"> 50 µM"
>>> reported_measurement("COc1nc2c(cc1S(=O)(=O)c1ccccc1)CCn1c(C(=O)OC(C)C)ccc1-2 [Compound 7i]")
"7.9 µM"
>>> reported_measurement("CCOC(=O)c1ccc2n1CCc1cc(S(=O)(=O)c3ccccc3)c(OC)nc1-2 [Compound 7h]")
"4.4 µM"
>>> reported_measurement("O=c1[nH]c2c(cc1S(=O)(=O)c1ccccc1)CCn1cccc1-2 [Compound 7a]")
"> 50 µM"
>>> reported_measurement("CC(C)OC(=O)c1ccc2n1CCCc1cc(S(=O)(=O)c3ccccc3)c(=O)n(C)c1-2 [Compound 8d]")
"> 50 µM"
>>> reported_measurement("CC(C)OC(=O)c1ccc2n1CCc1cc(S(=O)(=O)c3ccccc3)c(=O)[nH]c1-2 [Compound 7c]")
"> 50 µM"
>>> reported_measurement("CCOC(=O)c1ccc2n1CCCc1cc(S(=O)(=O)c3ccccc3)c(=O)n(C)c1-2 [Compound 8c]")
"24.9 µM"
>>> reported_measurement("CC(C)OC(=O)C1(Br)C=CC2=C3NC(=O)C(S(=O)(=O)c4ccccc4)C=C3CCCN21 (stereo not shown) [Compound 8h]")
"> 50 µM"

For each of the compounds below, note its IC50.
1. COc1nc2c(cc1S(=O)(=O)c1ccccc1)CCn1cccc1-2 [Compound 7g]
2. CC(C)OC(=O)c1ccc2n1CCCc1cc(S(=O)(=O)c3ccccc3)c(=O)[nH]c1-2 [Compound 8b]
3. CCOC(=O)c1ccc2n1CCCc1cc(S(=O)(=O)c3ccccc3)c(=O)[nH]c1-2 [Compound 8a]
4. CCOC(=O)c1ccc2n1CCc1cc(S(=O)(=O)c3ccccc3)c(=O)[nH]c1-2 [Compound 7b]
5. Cn1c2c(cc(S(=O)(=O)c3ccccc3)c1=O)CCn1cccc1-2 [Compound 7d]

# output
1. > 50 µM
2. > 50 µM
3. > 50 µM
4. 21 µM
5. > 50 µM

# input # get_value(readout='IC50', item= CCOC(=O)c1ccc2n1CCc1cc(S(=O)(=O)c3ccccc3)c(=O)n(C)c1-2 [Compound 7e] )
# output > 50 µM
